Experiment: Selectivity index, ratio of IC50 for cytotoxicity against human HaCaT cells assessed as cell viability to IC50 for cytotoxicity against human A549 cells assessed as cell viability
Assay type: toxicity, cell-based
Settings: HaCaT cells versus A549 cells
outcome-measure: selectivity ratio
When you answer, write just the number.

Query :: What value of selectivity ratio has been recorded for this entry: CN(C)CCNCCc1ccc2c(Cl)cc(Cl)c(N)c2n1.Cl.Cl.Cl
Result :: 2.5

---

Experiment: Selectivity index, ratio of IC50 for cytotoxicity against human HaCaT cells assessed as cell viability to IC50 for cytotoxicity against human HeLa cells assessed as cell viability
Type: toxicity, cell-based
Conditions: HaCaT cells versus HeLa cells, read-out: Ratio IC50
outcome-measure: selectivity ratio

Query :: Fill blank: measured selectivity ratio of the compound CN(C)CCNCCc1ccc2c(Cl)cc(Cl)c(N)c2n1.Cl.Cl.Cl is ____.
Result :: 2.8

---

Measured IC50 values are reported for all entries that follow.
Tested on: HeLa
Test: Cytotoxicity against human HeLa cells assessed as cell viability incubated for 48 hrs by MTT assay
Format: functional, cell-based
Answer format: numeric, µM implied, no suffix.

Query :: Please look up its IC50: CN(C)CCNCCc1ccc2c(Cl)cc(Cl)c(N)c2n1.Cl.Cl.Cl
Result :: 14.5

Query :: Tell me the measured IC50 of O=c1[nH]cc(F)c(=O)[nH]1 , please.
Result :: 14.5
